Target: Factor X (FX), P00742
Sequence (P00742 whole entry, looked up): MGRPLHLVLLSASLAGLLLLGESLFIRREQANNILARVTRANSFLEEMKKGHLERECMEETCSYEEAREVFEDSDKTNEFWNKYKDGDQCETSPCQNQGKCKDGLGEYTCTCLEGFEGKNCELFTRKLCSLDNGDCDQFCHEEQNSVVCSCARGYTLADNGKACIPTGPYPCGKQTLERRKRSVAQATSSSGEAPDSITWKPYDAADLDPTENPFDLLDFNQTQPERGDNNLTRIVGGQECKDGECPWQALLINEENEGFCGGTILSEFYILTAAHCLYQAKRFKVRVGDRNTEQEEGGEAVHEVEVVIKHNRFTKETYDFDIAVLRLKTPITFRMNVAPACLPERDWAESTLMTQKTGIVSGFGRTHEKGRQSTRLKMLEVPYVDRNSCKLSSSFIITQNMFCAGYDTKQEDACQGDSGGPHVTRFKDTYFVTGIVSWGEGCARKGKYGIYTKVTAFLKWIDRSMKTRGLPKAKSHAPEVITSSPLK
Listed here are proteins together with their documented kcat/KM for FX activation (Xase: FVIIIa, PC/PS vesicles, Ca2+).
Kindly provide the numeric value in M⁻¹ s⁻¹ only, without the unit symbol.

[
  {
    "PROTEIN": "FIXa-K247N/N249S/R338E/T343R/R403E (protein) chain 1: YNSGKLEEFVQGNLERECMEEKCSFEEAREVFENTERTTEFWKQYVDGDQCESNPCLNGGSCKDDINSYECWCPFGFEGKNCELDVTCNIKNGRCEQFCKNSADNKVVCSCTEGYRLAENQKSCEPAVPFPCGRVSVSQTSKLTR chain 2: VVGGEDAKPGQFPWQVVLNGKVDAFCGGSIVNEKWIVTAAHCVETGVKITVVAGEHNIEETEHTEQNRSVIRIIPHHNYNAAINKYNHDIALLELDEPLVLNSYVTPICIADKEYTNIFLKFGSGYVSGWGRVFHKGRSALVLQYLRVPLVDRATCLESTKFRIYNNMFCAGFHEGGRDSCQGDSGGPHVTEVEGTSFLTGIISWGEECAMKGKYGIYTKVSEYVNWIKEKTKLT",
    "VALUE_UNIT": "M⁻¹ s⁻¹",
    "ENDPOINT_RESULT": "5.6e+08"
  }
]

Now look at this entry.
Query block: Look up and state reported kcat/KM for FX activation (Xase: FVIIIa, PC/PS vesicles, Ca2+) for FIXa-K247N/N249S/R318Y/R338E/T343R (protein) chain 1: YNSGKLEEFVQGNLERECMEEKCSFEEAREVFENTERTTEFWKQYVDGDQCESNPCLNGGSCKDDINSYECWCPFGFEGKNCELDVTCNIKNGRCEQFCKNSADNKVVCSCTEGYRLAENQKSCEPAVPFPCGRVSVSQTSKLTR chain 2: VVGGEDAKPGQFPWQVVLNGKVDAFCGGSIVNEKWIVTAAHCVETGVKITVVAGEHNIEETEHTEQNRSVIRIIPHHNYNAAINKYNHDIALLELDEPLVLNSYVTPICIADKEYTNIFLKFGSGYVSGWGRVFHKGYSALVLQYLRVPLVDRATCLESTKFRIYNNMFCAGFHEGGRDSCQGDSGGPHVTEVEGTSFLTGIISWGEECAMKGKYGIYTKVSRYVNWIKEKTKLT
Result block: 3.9e+08
